# PROTOCOL: Delivery vehicle size and polydispersity by dynamic light scattering
# Format: physicochemical
# CONDITION DETAILS: DLS in PBS; peptoid:DSPC:Cholesterol:DMG-PEG2000 weight ratio 20:1.79:7.16:1.84, mRNA
Starred links: 1 amine or outer side, 2 acyl side, 3 side chain; linkers in the order of their positions; H or OH if unused. Non-standard residues stand in square brackets, D forms with d. Residues, ends and D or L forms follow the SMILES beside them. *: point of attachment. Gly(N-(3-decanoyloxypropyl)) = CCCCCCCCCC(=O)OCCCNCC(=O)O; N(3-lauroyloxypropyl)Gly = CCCCCCCCCCCC(=O)OCCCNCC(=O)O; N(2-decanoyloxyethyl)Gly = CCCCCCCCCC(=O)OCCNCC(=O)O; Gly(N-(CH2)3O-octanoyl) = CCCCCCCC(=O)OCCCNCC(=O)O; Gly(N-3-morpholinopropyl) = O=C(O)CNCCCN1CCOCC1; X5 = CCCCC(CC)C(=O)OCCCCCCN(CC(=O)[*:2])[*:1]; N(2-ethylhexyl)Gly = CCCCC(CC)CNCC(=O)O; X1 = CCCCC(CC)CSSCCN(CC(=O)[*:2])[*:1]; Gly(N-dodecyl) = CCCCCCCCCCCCNCC(=O)O; N(CH(CH2OH)2)Gly = O=C(O)CNC(CO)CO; N(octyl)Gly = CCCCCCCCNCC(=O)O; NDecylGly = CCCCCCCCCCNCC(=O)O; NHexGly = CCCCCCNCC(=O)O; For = O=C*
VALUE TYPE: Particle Size (nm)
Respond with the bare value in nm.

The following compounds have reported results that may help.
COMPOUND	READING UNIT	Particle Size
CCCCCCCCCC(=O)OCCCN(CC(=O)N(CC(=O)N(CC(=O)N(CCCOC(=O)CCCCCCCCC)CC(=O)N(CC(N)=O)CC(CC)CCCC)CC(CC)CCCC)CC(CC)CCCC)C(=O)CN(CC(CC)CCCC)C(=O)CN(C=O)CCCN1CCOCC1 (stereo not drawn) [Compound 106] (For-[Gly(N-3-morpholinopropyl)][N(2-ethylhexyl)Gly][Gly(N-(3-decanoyloxypropyl))][N(2-ethylhexyl)Gly][N(2-ethylhexyl)Gly][Gly(N-(3-decanoyloxypropyl))][N(2-ethylhexyl)Gly]-NH2)	nm	91.5
CCCCCCCC(=O)OCCCN(CC(=O)N(CCCOC(=O)CCCCCCC)CC(=O)N(CCSSCC(CC)CCCC)CC(=O)N(CCCOC(=O)CCCCCCC)CC(=O)N(CCCOC(=O)CCCCCCC)CC(=O)N(CCSSCC(CC)CCCC)CC(N)=O)C(=O)CNC(CO)CO (stereo not drawn) [Compound 128] (H-[N(CH(CH2OH)2)Gly][Gly(N-(CH2)3O-octanoyl)][Gly(N-(CH2)3O-octanoyl)][X1][Gly(N-(CH2)3O-octanoyl)][Gly(N-(CH2)3O-octanoyl)][X1]-NH2)	nm	62.1
CCCCCCCCCC(=O)OCCCN(CC(=O)N(CC(N)=O)CC(CC)CCCC)C(=O)CN(CCCCCCCC)C(=O)CN(CC(CC)CCCC)C(=O)CN(CCCOC(=O)CCCCCCCCC)C(=O)CN(CCCCCCCC)C(=O)CNC(CO)CO (stereo not drawn) [Compound 32] (H-[N(CH(CH2OH)2)Gly][N(octyl)Gly][Gly(N-(3-decanoyloxypropyl))][N(2-ethylhexyl)Gly][N(octyl)Gly][Gly(N-(3-decanoyloxypropyl))][N(2-ethylhexyl)Gly]-NH2)	nm	89.3

**Q:** Return value of Particle Size for input CCCCCCCCCCCC(=O)OCCCN(CC(N)=O)C(=O)CN(CC(CC)CCCC)C(=O)CN(CCCCCCCCCC)C(=O)CN(CC(CC)CCCC)C(=O)CN(CCCOC(=O)CCCCCCCCCCC)C(=O)CN(CC(CC)CCCC)C(=O)CNC(CO)CO (stereo not drawn) [Compound 59] (H-[N(CH(CH2OH)2)Gly][N(2-ethylhexyl)Gly][N(3-lauroyloxypropyl)Gly][N(2-ethylhexyl)Gly][NDecylGly][N(2-ethylhexyl)Gly][N(3-lauroyloxypropyl)Gly]-NH2) , no commentary.
**A:** 79.5

**Q:** Please look at this compound and report its Particle Size: CCCCCCCCCCCCN(CC(=O)N(CC(N)=O)CC(CC)CCCC)C(=O)CN(CCCCCCCC)C(=O)CN(CC(CC)CCCC)C(=O)CN(CCCCCCOC(=O)C(CC)CCCC)C(=O)CN(CCCCCCCC)C(=O)CNC(CO)CO (stereo not drawn) [Compound 31] (H-[N(CH(CH2OH)2)Gly][N(octyl)Gly][X5][N(2-ethylhexyl)Gly][N(octyl)Gly][Gly(N-dodecyl)][N(2-ethylhexyl)Gly]-NH2)
**A:** 72.9

**Q:** Provide Particle Size value for the following compound: CCCCCCCCCC(=O)OCCN(CC(=O)N(CCOC(=O)CCCCCCCCC)CC(=O)N(CC(=O)N(CCOC(=O)CCCCCCCCC)CC(=O)N(CCOC(=O)CCCCCCCCC)CC(=O)N(CC(N)=O)CC(CC)CCCC)CC(CC)CCCC)C(=O)CN(C=O)CCCN1CCOCC1 (stereo not drawn) [Compound 76] (For-[Gly(N-3-morpholinopropyl)][N(2-decanoyloxyethyl)Gly][N(2-decanoyloxyethyl)Gly][N(2-ethylhexyl)Gly][N(2-decanoyloxyethyl)Gly][N(2-decanoyloxyethyl)Gly][N(2-ethylhexyl)Gly]-NH2)
**A:** 75.4

**Q:** Give the measured Particle Size for CCCCCCCC(=O)OCCCN(CC(=O)N(CC(=O)N(CC(=O)N(CCCOC(=O)CCCCCCC)CC(=O)N(CC(N)=O)CC(CC)CCCC)CC(CC)CCCC)CC(CC)CCCC)C(=O)CN(CC(CC)CCCC)C(=O)CNC(CO)CO (stereo not drawn) [Compound 4] (H-[N(CH(CH2OH)2)Gly][N(2-ethylhexyl)Gly][Gly(N-(CH2)3O-octanoyl)][N(2-ethylhexyl)Gly][N(2-ethylhexyl)Gly][Gly(N-(CH2)3O-octanoyl)][N(2-ethylhexyl)Gly]-NH2)
**A:** 74.4

**Q:** Determine its reported Particle Size: CCCCCCCCCCCC(=O)OCCCN(CC(=O)N(CC(N)=O)CC(CC)CCCC)C(=O)CN(CCCCCC)C(=O)CN(CC(CC)CCCC)C(=O)CN(CCCOC(=O)CCCCCCCCCCC)C(=O)CN(CCCCCC)C(=O)CNC(CO)CO (stereo not drawn) [Compound 54] (H-[N(CH(CH2OH)2)Gly][NHexGly][N(3-lauroyloxypropyl)Gly][N(2-ethylhexyl)Gly][NHexGly][N(3-lauroyloxypropyl)Gly][N(2-ethylhexyl)Gly]-NH2)
**A:** 126.1

**Q:** Read off the recorded Particle Size for CCCCCCCCN(CC(=O)N(CCCOC(=O)CCCCCCC)CC(=O)N(CCSSCC(CC)CCCC)CC(=O)N(CCCCCCCC)CC(=O)N(CCCOC(=O)CCCCCCC)CC(=O)N(CCSSCC(CC)CCCC)CC(N)=O)C(=O)CNC(CO)CO (stereo not drawn) [Compound 127] (H-[N(CH(CH2OH)2)Gly][N(octyl)Gly][Gly(N-(CH2)3O-octanoyl)][X1][N(octyl)Gly][Gly(N-(CH2)3O-octanoyl)][X1]-NH2)
**A:** 84.1
